target_under_test: human A3AR (Homo sapiens)
Construct: expressed in transfected cells
test_details: LOPAC library primary screen: single concentration (10 μM) inhibition of 25 nM CA200645 binding, PHERAstar FS
recorded_endpoint: % 25 nM CA200645 binding (%)
Give the number; % is assumed, so skip it.

Sample answers from the record:
O=c1c2ccccc2nc2n1CCc1c-2[nH]c2ccccc12: 34.3
Nc1ncn([C@@H]2O[C@H](CO)[C@@H](O)[C@H]2O)c(=O)n1: 92.0

Recorded % 25 nM CA200645 binding for "CNCCc1c[nH]c2ccc(O)cc12.O=C(O)C(=O)O" on human A3AR (Homo sapiens) was 111.6

Recorded % 25 nM CA200645 binding for "O=C(Nc1ccccc1)c1cc([N+](=O)[O-])ccc1Cl" on human A3AR (Homo sapiens) was 114.5

Recorded % 25 nM CA200645 binding for "C=C[C@@]1(C)CC(=O)[C@]2(O)[C@@]3(C)[C@@H](O)CCC(C)(C)[C@@H]3[C@H](O)[C@H](OC(C)=O)[C@@]2(C)O1" on human A3AR (Homo sapiens) was 100.9

###

Below: a set of entries, each annotated with reported % 25 nM CA200645 binding.
target_under_test: human A3AR (Homo sapiens, UniProt P0DMS8)
Construct: expressed in transfected cells
test_details: LOPAC library primary screen: single concentration (10 μM) inhibition of 25 nM CA200645 binding, PHERAstar FS
Counter-ions that a name gives are not always drawn.
Give the number; % is assumed, so skip it.

Sample answers from the record:
C=C[C@H]1C[N@@]2CC[C@H]1C[C@@H]2[C@@H](O)c1ccnc2ccc(OC)cc12 [Quinidine sulfate]: 111.6
Br.Cc1cccc(C2CN(C)CCc3c2cc(O)c(O)c3Cl)c1 (stereo not drawn) [SKF 83959 hydrobromide]: 97.9
CC(C)(C)c1cc(C=C(C#N)C#N)cc(C(C)(C)C)c1O: 93.2
O=C1CN(/N=C/c2ccc(-c3ccc([N+](=O)[O-])cc3)o2)C(O)=N1 [Dantrolene sodium]: 94.8
O=C1NCc2c1c1c3ccccc3[nH]c1c1[nH]c3ccccc3c21: 81.9
O=C(O)CCc1nc(-c2ccccc2)c(-c2ccccc2)o1: 97.6
Cl.O=C(O)Cc1c[nH]cn1 [Imidazole-4-acetic acid hydrochloride]: 99.3
Clc1ccc(N2CCN(Cc3cc4ccccn4n3)CC2)cc1: 76.8

Looking up NC(=O)CN1CC(O)CC1=O (stereo not drawn) , I found its % 25 nM CA200645 binding recorded as 97.9

###

target_under_test: human A3AR (Homo sapiens, UniProt P0DMS8)
Construct: expressed in transfected cells
Sequence (P0DMS8 1-318): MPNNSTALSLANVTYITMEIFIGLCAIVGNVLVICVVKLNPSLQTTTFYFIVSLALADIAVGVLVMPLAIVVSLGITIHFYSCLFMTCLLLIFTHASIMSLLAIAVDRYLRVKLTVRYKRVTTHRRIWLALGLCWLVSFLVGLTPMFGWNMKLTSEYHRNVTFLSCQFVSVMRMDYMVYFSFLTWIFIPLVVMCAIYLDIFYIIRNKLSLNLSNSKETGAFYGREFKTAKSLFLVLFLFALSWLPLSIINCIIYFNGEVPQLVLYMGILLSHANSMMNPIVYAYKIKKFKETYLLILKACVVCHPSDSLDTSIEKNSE
test_details: LOPAC library primary screen: single concentration (10 μM) inhibition of 25 nM CA200645 binding, PHERAstar FS
Structures can show the parent of a compound that is named as a salt.
recorded_endpoint: % 25 nM CA200645 binding

Sample answers from the record:
CC(=O)NNC(=O)N1Cc2ccccc2Oc2ccc(Cl)cc21: 105.0 ± 9.4%
C[C@]12CC[C@@H]3c4ccc(O)cc4C[C@@H](CCCCCCCCC[S+]([O-])CCCC(F)(F)C(F)(F)F)[C@H]3[C@@H]1CC[C@@H]2O (some centres unmarked): 100.4 ± 12.1%
Cl.Nc1cc(Cl)c(N=C2NCCN2)c(Cl)c1 [p-Aminoclonidine hydrochloride]: 89.0 ± 23.3%
Cc1nc(N=Nc2ccc(S(=O)(=O)O)cc2S(=O)(=O)O)c(COP(=O)(O)O)c(C=O)c1O: 106.1 ± 11.3%
CCOC(=O)Nc1ccc(NCc2ccc(F)cc2)nc1N [Flupirtine maleate]: 75.3 ± 9.1%
CC1=C(C(=O)O)N2C(=O)[C@@H](NC(=O)[C@H](N)c3ccccc3)[C@H]2SC1.O [Cephalexin hydrate]: 101.0 ± 8.0%
O=[N+]([O-])c1ccc2c(c1)S(=O)(=O)C=C2: 107.3 ± 19.6%

Looking up "CCCc1c(-c2ccc(O)cc2)nn(-c2ccc(O)cc2)c1-c1ccc(O)cc1" , I found its % 25 nM CA200645 binding recorded as 35.7 ± 9.6%
